assay: label from the status in PepcDB records
observation-type: protein production

(Q) Which protein production value is on record for `MSVNPFQTMRARYFLIVFALLTVVARASNELIENTFHMQNSTFINILIFYILPITWIYFAYKKHRVAFSLFINRNETFNLVQVLYITIMLCVFSYGYLILYMYSFAWITPTFIMNALREPIMDSTGGYVYQVIMVVFIAPIIGEFVFRGFLLQRFAAKWGTSIAIIVVAILFALLHVDFLGAIVFSVVLSIVYIRTNSLLMPIAIHMLNNAFVIGASFLINKEEIMSFADFSNYTTFFPGLIIFITGLNLVLIFLFVNRKYWSKEMPAIYVEQEKSFSDVVGSK` ?
(A) failed

(Q) So what's the measured protein production for this one? `MEHKISEPNARVDVADVLRGLAVMGIIILHSIEHFNFYSFPDTVPCEWMKFTDKAIWNGLFFVFSNKAYAIFALLFGFSFYIQDNNQQRRGKDFRLRFIWRMALLFIIGQFNAAFFTGEILTMYAMLGLILPLSCRLSDRSIAIFATLLIIQPIDWCKVIYALCNPDYVAGPGLASHYFGIAFDVQKNGTFLETIRMNLWEGQLANLTWALEHGRILQTPALFLFGMLVGRKGLFLYSEQNEQHWLKALGISLICFFPLYGLNNMLPEFITRNAIRVPLQLIISSLSNLSFMVLLVSGLLITFYRIKDRRFLMRFTSYGKMSLTNYIGQSVIGSLLFYHWGFELGRFLGITYSFFFGILFVLLQMAFCSWWLSHFKHGPFEGLWKRLTWIGNNKRK`
(A) failed

* * *

assay: label from the status in PepcDB records
observation-type: protein production

(Q) Which protein production is listed for `MRREKTMDTLIRSIMIKSKRKMDAKVAQFGLTTQQARVLGFLNDNAANEIIQKDLQRIFQTRGASITSLIQGLEKKQLISRKPSLRDGREKVVTLTKEGKDIVDEFNASFPREDDKAKKILSADEYKTFIELLSKIDDQTD` ?
(A) failed

(Q) Field request: protein production | item: `MRAAVRTRIVATYLAVAALWGSTWMAIRIGLEDLPPLRFAGVRMAIAALVLAPFALRGGAWREVVGPARAQLALVAVLQIALPYGLMFVAQQWVPSGLAAVLFASFPVWIALLARALVPGETLTPARVASALLGIAGVAVLQLPHLGDLEGSGRLLLGGALVVLSSMIVALANVLVRRHLAAVSPLAMTAGQTAVGAVLLLAAAALLEQGRPAAFTASAVAALAWLAVFGTALTYVGLYWLVPRVPMAAIGALPLLDTSVAVTLGALVLHEPVGWNLALGGGMVLAAAALTIPRRR`
(A) failed

* * *

assay: label from the status in PepcDB records
observation-type: protein production

Recorded results for 4 sequences are shown here.
(Q) Can you share its protein production? I mean this sequence: `ARNAEAEGRLVRECRELLERHAFEELTVPDIAECLGVSVRTLQTALRAETGATPSELLRSIRLDRAREMLLEANPREQSVTAVAEQCGFTHQGRFSALYVKAFGELPSESLRR`
(A) failed

(Q) Item `MMELHDLAEDLPSKWTEIMAVAEKAFRAFAELDAVKRELAESENAQ` has what recorded protein production?
(A) not failed

(Q) Using the record for `LEEVQLVVEPEGGAVAPGGTVTLTCEVPAQPSPQIHWMKDGVPLPLPPSPVLILPEIGPQDQGTYSCVATHSSHGPQESRAVSISIIEPGEEGPTAGSVGGSGLGTLALALGILGGLGTAALLIGVILWQRRQRRGEERKAPENQEEEEERAELNQSEEPEAGESSTGGP` , report its protein production.
(A) not failed

(Q) Please give the measured protein production for this sequence: `MTPNYLDIAFLAVLGLFTLRGLFRGLVEEVAGLVGVIGGFWLANRHHADAAAYVGRVVEDPAWVGVLSYVVVFLGVLLVVSIVARIIRKLLVLSFAGWLDHLAGGAVGVAKGVIICSILLAVLMHFLPDASFVRDSRVIPHLAKVTSFIKGYLPQQIVN`
(A) failed

Consider now this further sequence.
(Q) Please give the measured protein production for this sequence: `MTAIAPVITIDGPSGAGKGTLCKAMAEALQWHLLDSGAIYRVLALAALHHHVDVASEDALVPLASHLDVRFVSTNGNLEVILEGEDVSGEIRTQEVANAASQVAAFPRVREALLRRQRAFRELPGLIADGRDMGTVVFPDAPVKIFLDASSEERAHRRMLQLQEKGFSVNFERLLAEIKERDDRDRNRAVAPLVPAADALVLDSTTLSIEQVIEKALQYARQKLALA`
(A) failed

* * *

assay: label from the status in PepcDB records
observation-type: protein production

(Q) protein production lookup needed for `MNLDRRGLILLVILTLAWGINWPIMKLGVAHFPAMAFRLLCMAGGLVALGLALTFRGDSLRVPRAAWGTVLKLAIPNMVIWHLFAICAVKMLSSGRAAILGYTMPIWAVVWGLVIFRDRIALSAWIGIGCALAGTVLLLSGEIAALTGSPAGTLLMLVAAAGWGFGTQLMKRTHTDVPIGAMTFWMLAITLPFLGAGTLLFESGWRMPTAIEWGAIAYNAVVVFAYCHLVWFALARSLPPVVSSLSIMFIPVVGVFSGMWFLGETPHWQDYVAIVLMFAALSSVMLAPLLRRRM` , thanks.
(A) failed

(Q) Data request, read-out protein production, for `ARLEPLLIGGLYPKNLEDRILIKLDQAPPYLLDGLVAVEDRDFYHHFGVSPKSIARAIWVNTSQGQMRQGGSTLTQQLVKNFYLTNERSLSRKLTEAMMAVLLEIHYSKQEILEAYLNEVFVGQDGQRAVHGFGLASQYFFSQPLSELKIHQVAMLVGLVKGPSFYNPRRNP`
(A) failed

(Q) Look up protein production: `MFFEIALIGTTASGKTYIANTLAREFNAVVLSLDSLCVYKEINIASAKPSQDDLASIKYFGVNLLSVNEHFNVELFIREYQKAKEFALARNLPLIIVGGTGFYLKTMIDGLSEKTLESKSSLNNDEIYALLLNIDPNYKIEKNDTYRLKKWLGIYEQTREIPSEFLKRTQKTGVLKDIEIYELAWDKEILKKRIKTRTKEMLDNGLLDEAKILFSKFDHKLKALNSIGLKECKEYLDGEISFKELENLITIHTTQLAKRQRTFNKKFQSKALEFDKALATLRMKFSIEKLEHHHHHH`
(A) failed

* * *

test: label from the status in PepcDB records
observation-type: protein production

(Q) Request the reported protein production associated with `WILASTTEGAPSVAPLNVTVFLNESSDNVDIRWMKPPTKQQDGELVGYRISHVWQSAGISKELLEEVGQNGSRARISVQVHNATCTVRIAAVTRGGVGPFSDPVKIFIPAH`
(A) not failed

(Q) What protein production value was documented for this sequence, `NDDIIVNWVNRTLSEAGKSTSIQSFKDKTISSSLAVVDLIDAIQPGCINYDLVKSGNLTEDDKHNNAKYAVSMARRIGARVYALPEDLVEVKPKMVMTVFACLMGRGMKRV` ?
(A) not failed

(Q) Please look up its protein production: `MSHLRIPKNWTIQRSTPFFTKDNVPEALLTHHNTAVDVFGQICVMEGVVTYYGFANSEATEPEIKVVINAGQFATSPPQYWHRIELSDDAQFNINFWSDQDKSGKKMFNTKLEHHHHHH`
(A) not failed

* * *

assay: label from the status in PepcDB records
observation-type: protein production

Some sequences with known protein production results, for comparison:
(Q) May I ask what protein production has been recorded for `MSIFANLKDRMKAVFQPRSDILASQDAESTPGSRDALFAIEELSRAVRNDPDAVEIYLALGNLYRLRGDIDRAVQIRSSLIVRPGLDNRFRARAYLELGRDYRRGGFVDRALQAFDEAQRLGAERDAIILELAHLHADSGSFDLAAEQFGRVGHKPAQAHYLVRHAEDLCGQGEFAEAVKTLTRAVKVYPGSIEAWTTRIAMHIRSGEWRKAKSMLREAMQSVSPDRRFLVFDGILAITPPENAPDSVQQFEQNRCECVLPVISEQEPELLLHYYGALFLLRCGEREQAGNWLAKAMVLRPDFWAARLELLGISMDRQQLSPVFKGQLEYFVSQARHVKRFVCQNCGLRREQAFYLCPRCRSWHSATFRLSLQD` ?
(A) failed

(Q) Recorded protein production for `LFQRVLYATDFSENATRAFDAFQYLRHATQEATLVHVESPKDATSEADPAEQLASLADTLSQWDIETNVEVRRGDPAEEILDVEAAVTPTTTLVGSRGQSRMRRLLLGSVSEDIIAQATGNVYLVPPP` , please?
(A) failed

(Q) GET /values?readout=protein production&item= `MRNDRSFIELRARERAHALLDDGSYRELLDPFEGIMSPWLGAQGIVPQSDDGMVVAKGTINGQPAVVIAIEGTFQGGSMGEVSGAKMAAALELAAEDNRNGIPTQAVLCLETGGVRLQEANLGLAAIADIHAAIVDLRRYTPVVGIITGTVGCFGGMSIAAALCSYLIVTREARLGLNGPQVIEQEAGIEEYDSRNRPFIWSMTGGEIRAASGLVDALVNDGVNAVKTAMIEAIAKGVPAQHRSDNYDDYLRRLSQFDTRQQADTAQIKQLFAREDK`
(A) not failed

(Q) Report protein production for `MAKWRVAAILSGALLAADARAEALRMLLTQIPGIIEQAPDGASMRGVGIDLMKEVGRRAGVELRFEAYPQARARLLVERQRDACLPVAHLPEQAANFKWSAPLLQMRLVLLARGDDGRQLRSLEQAGGLRVGAMRGTMAAARLKERGVAVEESADYLSGLEKLRLGRLDLWAMLDVGVASLARRLEMPPPRVAWVMDTLDVSFACNRQVDDALIARLDGAIAAMRADGSMARFDLR` please.
(A) failed

(Q) Need protein production of `MLRNNLGNSSDSKNEDGSVFSQTEHNIVATYLIMAGMISIISNIIVLGIFIKYKELRTPTNAIIINLAVTDIGVSSIGYPMSAASDLYGSWKFGYAGCQVYAGLNIFFGMASIGLLTVVAVDRYLTICLPDVGRRMTTNTYIGLILGAWINGLFWALMPIIGWASYAPDPTGATCTINWRKNDRSFVSYTMTVIAINFIVPLTVMFYCYYHVTLSIKHHTTSDCTESLNRDWSDQIDVTKMSVIMICMFLVAWSPYSIVCLWASFGDPKKIPPPMAIIAPLFAKSSTFYNPCIYVVANKKFRRAMLAMFKCQTHQTMPVTSILPMDVSQNPLASGRI` , thanks.
(A) failed

Parameters: items (list). Returns: protein production for each item.
1. MPDKKREVSLSHRLQEVASFVPKGARLLDVGSDHAYLPIYLLEQGLIDFAVAGEIIKGPYESAVANVSESELSGQIAVRLADGLAALNDNDDIDLITICGMGGRLIADILAAGSDKLNSVKQLILQPNNCEDDLRSWLVANDFMIKAEKMVKDRHKYYEILVVEKGKITLSDKDLRFGPFLRQERSSIFKERWRKELAKLELALTKVPAKKKADNMFLSTKIEQIKEVLYES
2. MPVRTSQASQGNRGKGVGLGLALASAVAFGGSGVAAKPLIEAGLDPLHVVWLRVSGAALVMLPLAVRHRALLRRRPALLIGFGLLAVAGVQACYFAAISRIPVGVALLVEYLAPALVLGWVRFVQRRPVTRAAALGVVLAVGGLACVVEVWSGLGFDALGLLLALAAACCQVGYFVLSDQGSETGEDAPDPLGVIAFGLLIGALVLTVVARPWTMDWSVLGGRADMNGDSVPAALLLGWIVLIATVVAYVTGVLSVRRLSPQVAGVVACLEAVIATVLAWVLLGEHLSAPQIIGGAVVLVGAFIAQSSAPAKPSDGPVTGGGGAERQLSARGTAA
3. MNKLSEKNTTRLASLDILRGFDLFLLVFFQPVFAALVRQLNLPFLNDILYQFDHEVWEGFRFWDLVMPLFLFMTGASMPFSLSKYVGMSGSYWLVYRRILRRVFLLFIFGMIVQGNLLGLDSSHIYLYSNTLQSIAVGYLIAAVIQLHFSFRWQIGITLLLLFIYWIPMTFLGDFTPAGNFAEQVDRCVLGRFRDGVFWNEDGTWSFSPYYNYTWIWSSLTFGVTVMLGAFAGKIMKEGKANRKKVVQTLSVIGVLLVGLAMLWSLQMPIIKRLWTGSMTLLSGGYCFLLMALFYYWIDYKGHSRGLNWLKVYGMNSITAYLLGEVVNFRCIADSVSYGLKQYIGDYYPVWLTFANYLILFFLLRMMYKRGLFLKV
4. MSMNDTYQPINCDDYDNLELACQHHLMLTLELKDGEKLQAKASDLVSRKNVEYLVVEAAGETRELRLDKITSFSHPEIGTVVVSES
5. MKKGLTFSITSAALFFGMNHVASADQIHTVKEDAKLTDIAQTFATTTTEIQNLNHLQNRDYVQVGETIVLPDSDIVEVKDGDTIKAIAERHQMTMNQLYQLNPNLGEVIYPGQLVAVSEKGSAHLNNQLQQIFNSHEAVQPTAQINDDERNKAENNTIRNVRTSGNITPSATQTWQNNDYSASDRQQVSNTTANEQVTSNYQYSPVSHASNGSNYYDWGQCTYYAFDRRQQLGKSVGNLWGNANNWASAAQQSGYQVNNTPEVGAIFQSTAGNYGHVGVVESKNADGSIVVSEMNWQGVGQKSYRTIHNTGQYNYIHLEHHHHHH
6. MFRKVLFPTDFSEGAYRAVEVFEKRNKMEVGEVILLHVIDEGTLEELMDGYSFFYDNAEIELKDIKEKLKEEASRKLQEKAEEVKRAFRAKNVRTIIRFGIPWDEIVKVAEEENVSLIILPSRGKLSLSHEFLGSTVMRVLRKTKKPVLIIKEVDENELAKTKGTSG

(A)
1: not failed; 2: failed; 3: failed; 4: failed; 5: failed; 6: not failed
